// provenance: paper PMC10519257

- protocol-summary: Serum stability
- Assay type: in vitro ADME, human
- test-conditions: human, serum
value-type: half-life (h)

• CC[C@H](C)[C@@H]1NC(=O)[C@H](Cc2ccc(O)cc2)NC(=O)[C@@H](N)CSSC[C@@H](C(=O)N2CCC[C@H]2C(=O)N[C@@H](CC(C)C)C(=O)NCC(N)=O)NC(=O)[C@H](CC(N)=O)NC(=O)[C@H](CCC(N)=O)NC1=O = 16
